Source of measurements: ChEMBL document CHEMBL5291721

# assayed.target: Muscarinic acetylcholine receptor M2 (Homo sapiens, UniProt P08172); note: assay procedure not described here
# Sequence (P08172 whole entry): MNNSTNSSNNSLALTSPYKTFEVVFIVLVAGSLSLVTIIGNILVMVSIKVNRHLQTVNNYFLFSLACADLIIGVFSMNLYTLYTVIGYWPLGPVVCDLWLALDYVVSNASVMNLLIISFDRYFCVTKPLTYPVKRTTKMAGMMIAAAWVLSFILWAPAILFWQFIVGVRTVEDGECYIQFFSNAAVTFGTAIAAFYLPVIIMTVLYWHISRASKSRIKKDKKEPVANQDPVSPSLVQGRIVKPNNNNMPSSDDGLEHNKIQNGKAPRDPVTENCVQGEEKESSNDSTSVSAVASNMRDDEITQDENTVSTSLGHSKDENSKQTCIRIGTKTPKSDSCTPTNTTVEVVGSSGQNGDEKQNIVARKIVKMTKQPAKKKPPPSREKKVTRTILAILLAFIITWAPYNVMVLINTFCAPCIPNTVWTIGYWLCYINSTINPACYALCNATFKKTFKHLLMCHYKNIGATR
# Type: functional, cell-based
test.readout: AC50

Example entries begin here.
Give the reported value of AC50 for this record: "CCN(CC)Cc1nccn1-c1ccc([N+](=O)[O-])cc1C(=O)c1ccccc1Cl" > 30 µM

Give the reported value of AC50 for this record: CN1C2CCCC1CC(NC(=O)c1nn(C)c3ccccc13)C2 (stereo not drawn) > 10 µM

Give the reported value of AC50 for this record: "NCC1(CC(=O)O)CCCCC1" > 30 µM

Give the reported value of AC50 for this record: "Cc1cn(-c2cc(NC(=O)c3ccc(C)c(Nc4nccc(-c5cnccn5)n4)c3)cc(C(F)(F)F)c2)cn1" > 30 µM

Give the reported value of AC50 for this record: "C[C@H](Nc1ncnc2[nH]cnc12)c1cc2cccc(Cl)c2c(=O)n1-c1ccccc1" > 30 µM

***
Give the reported value of AC50 for this record: "C[C@H](CS)C(=O)N1CCC[C@H]1C(=O)O" > 10 µM

Give the reported value of AC50 for this record: "OCCN(CCO)c1nc(N2CCCCC2)c2nc(N(CCO)CCO)nc(N3CCCCC3)c2n1" 2 µM

Give the reported value of AC50 for this record: N=C(N)NC(=O)c1nc(Cl)c(N)nc1N [AMILORIDE] > 30 µM

Give the reported value of AC50 for this record: "CCCCCCCC(=O)CC[C@@H]1[C@@H](C/C=C\CCCC(=O)O)[C@@H](O)C[C@H]1O" > 30 µM

Give the reported value of AC50 for this record: "CO/N=C(\C(=O)N[C@@H]1C(=O)N2C(C(=O)O)=C(CSc3nc(C)c(CC(=O)O)s3)CS[C@H]12)c1csc(N)n1" > 30 µM

Give the reported value of AC50 for this record: CCN(CCO)CCCC(C)Nc1ccnc2cc(Cl)ccc12 (stereo not drawn) [HYDROXYCHLOROQUINE] > 10 µM

Give the reported value of AC50 for this record: "COc1nc(C)nc(Cl)c1N=C1NCCN1" > 30 µM

Give the reported value of AC50 for this record: "C[C@]12CCC(=O)C=C1C=C[C@@H]1[C@@H]2CC[C@@]2(C)[C@H]1CC[C@@]21CCC(=O)O1" > 30 µM
